Where do the numbers come from? From patent US20230301973A1.

test: Transport over the blood-brain barrier, brain-to-plasma ratio
Type: in vivo, mouse
recorded conditions: mouse, brain and plasma, mouse models (wild type), passive transport; read-out: Brain-to-plasma (B/P) ratio
reported property: Kp

# return recorded Kp for entry CC(=O)c1cnc2ccc(-c3cc(Cl)c(O)c(Cl)c3)nc2c1NC1CCC(CN(C)C)CC1 (stereo not shown) 0.02
